Reported normalised response values for a set of compounds
test system: MDA-MB-468; experiment: normalised response (% of control), CellTox Green; higher = less cell death (100 = DMSO, 0 = benzethonium chloride kill control); conditions: incubation time: 72 h
Measured Attribute: normalised response (%)

>>> recorded_measurement("Cc1cc(Nc2nc(N[C@@H](C)c3ncc(F)cn3)ncc2Cl)[nH]n1 [AZD1480] (10 nM)")
136
>>> recorded_measurement("O=C(O)CNC(=O)c1c(O)c2ccccc2n(Cc2ccccc2)c1=O [IOX-2] (5000 nM)")
57.3
>>> recorded_measurement("CO[C@@H]1[C@H](N(C)C(=O)c2ccccc2)C[C@H]2O[C@]1(C)n1c3ccccc3c3c4c(c5c6ccccc6n2c5c31)C(=O)NC4 [Midostaurin] (1000 nM)")
-9.58
>>> recorded_measurement("CC(=O)[C@]1(O)Cc2c(O)c3c(c(O)c2[C@@H](O[C@H]2C[C@H](N)[C@H](O)[C@H](C)O2)C1)C(=O)c1ccccc1C3=O [Idarubicin] (100 nM)")
49.4
>>> recorded_measurement("CC(C)C[C@H](NC(=O)[C@@H](COC(C)(C)C)NC(=O)[C@H](Cc1ccc(O)cc1)NC(=O)[C@H](CO)NC(=O)[C@H](Cc1c[nH]c2ccccc12)NC(=O)[C@H](Cc1cnc[nH]1)NC(=O)[C@@H]1CCC(=O)N1)C(=O)N[C@@H](CCCNC(=N)N)C(=O)N1CCC[C@H]1C(=O)NNC(N)=O [Goserelin] (100 nM)")
129

Cited source for all entries: the supplement of paper PMC4862054
